- System: αGluFA (acidic glucosidase)
- Assay: Effect of cations and inhibitors on recombinant αGluFA activity
- Assay type: biochemical, Ferroplasma acidiphilum
- Assay Setup: additive 125 mM
- Excerpt: The enzymes used for the tests were heterologously expressed in E. coli using genomic coding sequences obtained from Ferroplasma acidiphilum. The acidic enzymes according to the invention were expressed in E. coli using the genomiccoding sequence for the respective enzyme from Ferroplasma acidiphilum, which are described in detail below. […]
Readout Name: Activity (%) αGluFα

> print(dat)
                                molecule         readout.name  test.result
 1                                [Ca+2]  Activity (%) αGluFα         74.1
 2                                [Zn+2]  Activity (%) αGluFα         16.2
 3                                     N  Activity (%) αGluFα         58.8
 4                                 [Li+]  Activity (%) αGluFα         69.4
 5                                  [K+]  Activity (%) αGluFα         76.3
 6                                [Mg+2]  Activity (%) αGluFα         64.7
 7                                 [Na+]  Activity (%) αGluFα         74.0
 8  O=C(O)CN(CCN(CC(=O)O)CC(=O)O)CC(=O)O  Activity (%) αGluFα          9.4
 9                                [Co+2]  Activity (%) αGluFα         82.8
10                                [Sr+2]  Activity (%) αGluFα         71.3

* * *

Listed here are compounds together with their documented Activity (%) LigFA.
- System: LigFA (acidic ligase)
- Assay: Effect of cations and inhibitors on recombinant LigFA activity
- Format: biochemical, Ferroplasma acidiphilum
- Assay Setup: additive 10 mM
Readout Name: Activity (%) LigFA

> print(dat)
                                    compound  test.result
 1                            [Mg+2] [Mg^2+]        157.0
 2                            [Ca+2] [Ca^2+]        126.2
 3                            [Co+2] [Co^2+]        102.5
 4    CCCCCCCCCCCCOS(=O)(=O)[O-].[Na+] [SDS]         32.6
 5                              [Na+] [Na^+]         71.1
 6                                [K+] [K^+]        129.9
 7                            [Sr+2] [Sr^2+]         90.7
 8  O=C(O)CN(CCN(CC(=O)O)CC(=O)O)CC(=O)O [EDTA]         17.2
 9                              [Li+] [Li^+]        101.6
10                                 N [NH4^+]        107.2
11                            [Zn+2] [Zn^2+]          5.3

Cited source for all entries: patent US8003357B2
